Hey, just so you know, these numbers are from the NIST ThermoML archive (doi:10.1021/je400408w).

// molar heat capacity at constant pressure lookup, one value per entry
Protocol: molar heat capacity at constant pressure
Recorded Conditions: 293.15 K; 100 kPa; Liquid
Respond numerically; units are J/K/mol and should not be typed.

>>> df
   structure_smiles_string                         measured_property  unit_abbrev  value_observed
0            Cc1cccc(Cl)c1  molar heat capacity at constant pressure      J/K/mol          175.21

Request: Return reported molar heat capacity at constant pressure; argument: "CN1CCCC1=O"
Result: 165.44

Request: I am curious: what molar heat capacity at constant pressure value has been reported for "O=C1CCCN1" ?
Result: 168.36

Request: Returns the measured molar heat capacity at constant pressure for the input molecule. Input: "Cc1ccccc1Cl"
Result: 176.43

Request: GET /values?readout=molar heat capacity at constant pressure&item= "Cc1ccc(Cl)cc1"
Result: 175.66

----------
Reported speed of sound is given for each of the following compounds.
Recorded Conditions: 298.15 K; 101.33 kPa; Liquid; Pulse-echo method
Respond numerically; units are m/s and should not be typed.

Check out these entries, answers already filled in.
>>> df
                          compound  measured_property  unit_abbrev  value_observed
0  Cc1cccc(Cl)c1 [3-chlorotoluene]     speed of sound          m/s          1295.5
1      O=C1CCCN1 [2-pyrrolidinone]     speed of sound          m/s            1635
2    Cc1ccccc1Cl [2-chlorotoluene]     speed of sound          m/s          1298.7

Request: Give its speed of sound value. Item: CN1CCCC1=O [N-methylpyrrolidone]
Result: 1546.1

Request: So what's the measured speed of sound for this one? Cc1ccc(Cl)cc1 [4-chlorotoluene]
Result: 1288.4

----------
Recorded Conditions: 293.15 K; 101.33 kPa; Liquid; Vibrating tube method
Measured Property: mass density (kg/m3)
API: value field is a number in kg/m3; no unit string.

Before answering, review these 3 worked examples.
                          compound  value_observed
0  Cc1cccc(Cl)c1 [3-chlorotoluene]         1072.12
1      O=C1CCCN1 [2-pyrrolidinone]         1111.28
2    Cc1ccccc1Cl [2-chlorotoluene]         1082.22

Request: Need mass density of CN1CCCC1=O [N-methylpyrrolidone] , thanks.
Result: 1033.28

Request: Reported mass density, compound Cc1ccc(Cl)cc1 [4-chlorotoluene] : ____
Result: 1069.27

----------
Protocol: molar heat capacity at constant pressure
Recorded Conditions: 303.15 K; 100 kPa; Liquid
Known molar heat capacity at constant pressure of a selection of compounds
A number alone suffices; assume J/K/mol.

In [3]: df
Out[3]:
   structure_smiles_string  value_observed
0              Cc1ccccc1Cl          180.01
1                O=C1CCCN1          171.18
2            Cc1cccc(Cl)c1          177.67
3            Cc1ccc(Cl)cc1          180.37

The record that follows has no molar heat capacity at constant pressure shown yet.
Request: Value lookup for molar heat capacity at constant pressure; key = "CN1CCCC1=O"
Result: 166.92

----------
Recorded Conditions: 298.15 K; 101.33 kPa; Liquid; Vibrating tube method
Measured Property: mass density (kg/m3)
Number in kg/m3, nothing else.

# annotated cases, reported mass density shown
>>> df
   structure_smiles_string  unit_abbrev  value_observed
0            Cc1ccc(Cl)cc1        kg/m3         1064.37
1               CN1CCCC1=O        kg/m3         1028.26
2            Cc1cccc(Cl)c1        kg/m3         1067.23
3              Cc1ccccc1Cl        kg/m3         1077.34

Proceeding to the next compound to report its mass density.
Request: Quick one: mass density of "O=C1CCCN1" ?
Result: 1107.15

----------
Readings of molar heat capacity at constant pressure for the listed compounds
Protocol: molar heat capacity at constant pressure
Recorded Conditions: 298.15 K; 100 kPa; Liquid
Report only the number, with the unit J/K/mol understood.

Consider the reported molar heat capacity at constant pressure for these compounds:
>>> df
   structure_smiles_string                         measured_property  unit_abbrev  value_observed
0               CN1CCCC1=O  molar heat capacity at constant pressure      J/K/mol          166.22
1            Cc1cccc(Cl)c1  molar heat capacity at constant pressure      J/K/mol          176.46
2              Cc1ccccc1Cl  molar heat capacity at constant pressure      J/K/mol          178.21
3                O=C1CCCN1  molar heat capacity at constant pressure      J/K/mol          169.55

Turning now to a further compound:
Request: Query (compound): "Cc1ccc(Cl)cc1" ; field requested: molar heat capacity at constant pressure
Result: 177.95

----------
Attribute: speed of sound
Recorded Conditions: 293.15 K; 101.33 kPa; Liquid; Pulse-echo method
Express the result in m/s but write the number alone.

In [3]: df
Out[3]:
   structure_smiles_string  value_observed
0               CN1CCCC1=O          1565.6
1                O=C1CCCN1          1651.4
2            Cc1cccc(Cl)c1          1313.6
3            Cc1ccc(Cl)cc1          1306.5

Okay, now this compound:
Request: Recorded speed of sound of "Cc1ccccc1Cl" , please.
Result: 1316.8

----------
Recorded Conditions: 303.15 K; 101.33 kPa; Liquid; Vibrating tube method
Listing: mass density of selected compounds
Answer with a number only, understood to be in kg/m3.

Consider the worked cases shown below.
>>> print(df.to_string())
   structure_smiles_string  unit_abbrev  value_observed
0            Cc1ccc(Cl)cc1        kg/m3         1059.46
1              Cc1ccccc1Cl        kg/m3         1072.46

Request: Looking for the measured mass density of "CN1CCCC1=O" , can you help?
Result: 1023.49

Request: Reported mass density, compound "Cc1cccc(Cl)c1" : ____
Result: 1062.33

Request: Dear colleague, I am looking for the recorded mass density of the following compound: "O=C1CCCN1"
Result: 1103.06

----------
Recorded Conditions: 303.15 K; 101.33 kPa; Liquid; Pulse-echo method
Measured Property: speed of sound (m/s)
Use m/s as the unit, but write only the number.

Study these solved cases before continuing.
In [3]: df
Out[3]:
   structure_smiles_string  measured_property  value_observed
0               CN1CCCC1=O     speed of sound          1527.3
1                O=C1CCCN1     speed of sound          1618.7
2            Cc1cccc(Cl)c1     speed of sound          1277.3

Request: Consider the compound shown here: "Cc1ccc(Cl)cc1" What is its recorded speed of sound?
Result: 1270.3

Request: Record request: speed of sound value, item "Cc1ccccc1Cl"
Result: 1280.7
